target: human HDC (Homo sapiens, UniProt P19113); construct: containing the first 1431 bases (amino acid residues 1-477) of HDC; experiment: Histidine decarboxylase fluorescence polarization standard assay; conditions: standard assay: 30 nM HDC, 600 μM histidine, 90 minutes at 37° C.; read-out: IC50 for inhibition of HDC
Sequence (P19113 1-477 S148Q): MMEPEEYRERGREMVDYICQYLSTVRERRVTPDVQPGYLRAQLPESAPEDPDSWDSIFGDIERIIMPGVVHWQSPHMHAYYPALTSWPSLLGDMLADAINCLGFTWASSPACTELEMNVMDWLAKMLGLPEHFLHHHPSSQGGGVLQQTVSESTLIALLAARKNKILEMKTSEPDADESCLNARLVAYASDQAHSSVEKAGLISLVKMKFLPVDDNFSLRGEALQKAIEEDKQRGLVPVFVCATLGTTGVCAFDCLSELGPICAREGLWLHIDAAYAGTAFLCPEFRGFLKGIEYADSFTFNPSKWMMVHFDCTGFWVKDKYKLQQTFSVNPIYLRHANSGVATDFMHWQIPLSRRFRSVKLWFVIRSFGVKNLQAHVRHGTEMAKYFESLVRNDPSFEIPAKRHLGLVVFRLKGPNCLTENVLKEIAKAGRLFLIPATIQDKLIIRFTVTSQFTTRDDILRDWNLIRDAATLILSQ
MEASURE NAME: IC50 (µM)

P = COC(=O)C(N)Cc1c[nH]cn1 (centres unmarked)
Q = N[C@@](CF)(Cc1cnc[nH]1)C(=O)O
Smaller IC50 value? Options are P and Q // caller expects the label of the chosen entry
Q
(Q: 1.4 µM, P: 7.7 µM)

Origin of measurements: patent US7608407B2
